Origin of the recorded values: the supplement of paper PMC10567573

B1: TRIB1 (parent)
chain: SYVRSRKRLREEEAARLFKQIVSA

Variants of: B1
assay info: protein stability index of a GFP-peptide fusion (GPS, HEK-293T) (PSI 1-6); higher = more stable;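 further: lentivirally expressed fusions sorted by FACS into six bins by GFP to DsRed ratio, PSI derived from sequencing read proportions per bin multiplied by bin number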
test context: c terminus: a fixed tail appended
Decision: protein stability index >= 2 yields true, all other cases yield false.

For orientation, consider the following solved cases.
| changes | class assignment |
| --- | --- |
| L17W | true |
| K19F | true |
| S5H | false |
| A24M | false |
| V22S | true |

## Task Say whether A14G shows protein stability index of 2 or more.
## Result true

## Task Entry I21K : is its protein stability index no less than 2?
## Result true

## Task Dear colleague, could you confirm whether Y2Q has protein stability index at or above 2?
## Result true

## Task Textbook exercise: given the entry S1N , state whether its protein stability index is greater than or equal to 2.
## Result true

## Task Tell me whether protein stability index is at least 2 here: K19R
## Result false

## Task Entry A14R : is its protein stability index no less than 2?
## Result true
